- TESTED_SYSTEM: human PPARγ (Homo sapiens, UniProt P37231)
- Construct: expressed in transfected cells
- Sequence (P37231 29-505): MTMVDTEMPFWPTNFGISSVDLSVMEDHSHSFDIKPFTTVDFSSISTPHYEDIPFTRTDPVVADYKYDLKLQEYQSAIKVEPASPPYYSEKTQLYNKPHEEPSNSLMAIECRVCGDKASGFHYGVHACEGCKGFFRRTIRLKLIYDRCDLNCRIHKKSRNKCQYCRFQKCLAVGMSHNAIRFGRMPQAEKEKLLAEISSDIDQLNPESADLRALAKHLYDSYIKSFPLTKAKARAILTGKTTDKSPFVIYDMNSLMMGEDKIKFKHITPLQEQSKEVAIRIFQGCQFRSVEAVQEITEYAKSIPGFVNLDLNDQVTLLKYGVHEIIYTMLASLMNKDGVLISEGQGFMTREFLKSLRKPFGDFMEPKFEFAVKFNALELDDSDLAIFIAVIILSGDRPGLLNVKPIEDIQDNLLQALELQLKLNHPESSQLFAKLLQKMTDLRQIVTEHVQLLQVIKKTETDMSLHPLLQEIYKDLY
- Sequence (P19793 whole entry partner): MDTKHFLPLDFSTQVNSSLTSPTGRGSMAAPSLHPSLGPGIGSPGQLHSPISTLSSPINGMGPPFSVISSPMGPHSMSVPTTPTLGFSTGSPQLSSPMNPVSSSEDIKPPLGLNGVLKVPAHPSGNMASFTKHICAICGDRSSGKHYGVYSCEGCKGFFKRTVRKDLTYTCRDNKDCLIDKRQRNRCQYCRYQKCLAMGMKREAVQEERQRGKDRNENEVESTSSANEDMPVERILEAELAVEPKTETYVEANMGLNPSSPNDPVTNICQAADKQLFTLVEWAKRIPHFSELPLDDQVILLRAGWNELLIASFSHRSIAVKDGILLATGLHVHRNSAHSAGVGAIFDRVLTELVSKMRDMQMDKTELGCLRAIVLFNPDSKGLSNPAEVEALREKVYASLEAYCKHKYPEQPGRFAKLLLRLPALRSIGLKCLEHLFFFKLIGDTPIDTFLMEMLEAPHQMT
- PROTOCOL_DESCRIPTION: PPARγ agonistic activity: luciferase reporter assay in PPARγ:RXRα:4ERPP/CHO-K1 cells
- Type: cell-based
- COND: CHO-K1, test compound 10^−6 M; luciferase activity of control compound X (1 μM) = 100%, non-administration group = 0%
One threshold, 20%, splits the recorded activation at 1 µM values: lower ones are class 1, equal or higher ones are class 0.

Some solved cases for reference:
CCCc1c(Cc2ccc(-c3ccccc3-c3noc(=O)[nH]3)cc2F)c(=O)n([C@H]2C[C@H](OCC(C)(C)O)C2)c2nc(C)nn12
class 1
CCCCc1c(Cc2ccc(-c3ccccc3-c3noc(=O)[nH]3)cc2)c(=O)n([C@H]2CC[C@H](OCC(C)O)CC2)c2ccnn12 (relative stereo)
class 0
CCCc1c(Cc2ccc(-c3ccccc3-c3noc(=O)[nH]3)cc2)c(=O)n([C@H]2CC[C@@H](Oc3ccon3)CC2)c2ncnn12
class 0
CCCc1c(Cc2ccc(-c3ccccc3-c3noc(=O)[nH]3)cc2)c(=O)n([C@H]2CC[C@H](Oc3ccc(OC)cc3)CC2)c2ncnn12
class 0
CCCc1c(Cc2ccc(-c3ccccc3-c3noc(=O)[nH]3)cc2)c(=O)n(C2CCC(=CCO)CC2)c2ncnn12 (stereo not shown)
class 0

Q: Criterion: activation at 1 µM strictly below 20%. Is it met by `CCCc1c(Cc2ccc(-c3ccccc3-c3noc(=O)[nH]3)cc2)c(=O)n(CC(C)(C)C)c2nc(C)nn12` ?
Result: class 1

Q: Okay, and `CCCc1c(Cc2ccc(-c3ccccc3-c3noc(=O)[nH]3)cc2)c(=O)n([C@H]2CC[C@H](c3nc(C)no3)CC2)c2ncnn12` ?
Result: class 0

Q: Okay, and CCCc1c(Cc2ccc(-c3ccccc3-c3noc(=O)[nH]3)cc2)c(=O)n(C2CCC3(CC2)OCC(CO)O3)c2ncnn12 (stereo not shown) ?
Result: class 0

Q: Okay, and `CCCc1c(Cc2ccc(-c3ccccc3-c3noc(=O)[nH]3)cc2)c(=O)n([C@H]2CC[C@H](OCC(C)(C)O)CC2)c2ccnn12` ?
Result: class 0

Q: Okay, and `CCCc1c(Cc2ccc(-c3ccccc3-c3noc(=O)[nH]3)cc2)c(=O)n([C@H]2CC[C@H](Oc3ccc(C(C)(C)O)cc3)CC2)c2ncnn12` ?
Result: class 1

Q: Okay, and CCCc1c(C(C)c2ccc(-c3ccccc3-c3noc(=O)[nH]3)cc2)c(=O)n([C@H]2CC[C@H](OCC(C)(C)O)CC2)c2ncnn12 (stereo partly shown) ?
Result: class 1

----------
- TESTED_SYSTEM: human AT1 receptor (Homo sapiens, UniProt P30556)
- Construct: expressed in transfected cells; membrane fraction
- Sequence (P30556 whole entry): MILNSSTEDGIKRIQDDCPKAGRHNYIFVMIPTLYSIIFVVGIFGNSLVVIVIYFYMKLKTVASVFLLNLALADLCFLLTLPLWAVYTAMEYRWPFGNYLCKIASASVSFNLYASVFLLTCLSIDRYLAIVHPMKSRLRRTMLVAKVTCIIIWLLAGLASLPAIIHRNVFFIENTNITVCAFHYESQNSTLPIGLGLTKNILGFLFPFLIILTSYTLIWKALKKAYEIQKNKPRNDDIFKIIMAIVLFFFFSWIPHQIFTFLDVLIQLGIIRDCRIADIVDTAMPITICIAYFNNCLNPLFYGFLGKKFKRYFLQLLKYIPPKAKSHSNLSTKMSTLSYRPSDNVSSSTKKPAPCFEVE
- PROTOCOL_DESCRIPTION: AT1 receptor antagonistic activity: [125I]-angiotensin II binding assay on human AT1 receptor-expressing CHO-K1 cellular membrane fraction
- COND: 22.5 pM [125I]-angiotensin II, 1 hr room temperature
MEASUREMENT_KIND: IC50 (nM)
Only the number, expressed in nM, is required.

Please review the entries below; each comes with its answer.
CCCc1c(Cc2ccc(-c3ccccc3-c3noc(=O)[nH]3)cc2)c(=O)n([C@H]2CC[C@H](OCC(C)(O)C(F)(F)F)CC2)c2ncnn12 (stereo partly drawn) [Example 335]
1.9
CCCc1c(Cc2ccc(-c3ccccc3-c3noc(=O)[nH]3)cc2)c(=O)n([C@H]2CC[C@H](OC(C)C(C)O)CC2)c2ncnn12 (stereo partly drawn) [Example 299]
1.8

Q: For human AT1 receptor (Homo sapiens, UniProt P30556), provide IC50 of CCCc1c(Cc2ccc(-c3ccccc3-c3noc(=O)[nH]3)cc2)c(=O)n([C@H]2CC[C@](C)(OCCO)CC2)c2ncnn12 [Example 183] please.
Result: 2.5
